- System: NCI-H460 lung
- Assay details: NCI tumour cell line growth inhibition, 48 h
Property measured: TGI

compound=CNCCn1c(=O)c2cc(OC)c(OC)cc2c2cnc3cc4c(cc3c21)OCO4 target_of_assay="NCI-H460 lung" property_measured=TGI readout_value="0.217 µM"
compound="CC1CCC(C(C)(C)c2ccccc2)C(=O)C1 (stereo not given)" target_of_assay="NCI-H460 lung" property_measured=TGI readout_value="> 100 µM"
compound=CCCCCCc1cc2cc(C(=O)Nc3ccc(F)cc3)c(=N)oc2cc1O target_of_assay="NCI-H460 lung" property_measured=TGI readout_value="> 100 µM"
compound=CCCn1cnc2c(SCc3ccc(Cl)cc3)nc(N)nc21 target_of_assay="NCI-H460 lung" property_measured=TGI readout_value="40.6 µM"
compound=c1ccc2c(c1)c1ccccc1c1ccccc21 target_of_assay="NCI-H460 lung" property_measured=TGI readout_value="> 100 µM"
compound=N#Cc1cc2c(cc1Cl)Sc1nnc(Nc3ccccc3)n1S2(=O)=O target_of_assay="NCI-H460 lung" property_measured=TGI readout_value="9.22 µM"
compound=C=C(C)[C@@H]1CC[C@]2(C)[C@H](CC[C@@H]3[C@@H]([C@@](C)(O)CCC=C(C)C)CC[C@]32C)[C@@]1(C)CCC(=O)O target_of_assay="NCI-H460 lung" property_measured=TGI readout_value="> 100 µM"
compound=COc1cc2c3c(n(CCCN(C)CCO)c(=O)c2cc1OC)-c1cc2c(cc1C3=O)OCO2 target_of_assay="NCI-H460 lung" property_measured=TGI readout_value="> 100 µM"
compound=CC1(C)OP(=O)(O)C=C1Sc1ccc([N+](=O)[O-])cc1[N+](=O)[O-] target_of_assay="NCI-H460 lung" property_measured=TGI readout_value="> 100 µM"
compound="C[n+]1c2ccccc2c(NC(CCCN=C(N)N)C(=O)O)c2ccccc21 (stereo not given)" target_of_assay="NCI-H460 lung" property_measured=TGI readout_value="> 100 µM"
compound="C=C1C(=O)OC2C1CC(OC(C)=O)/C(C)=C/CCC1(C)OC21 (stereo not given)" target_of_assay="NCI-H460 lung" property_measured=TGI readout_value="> 100 µM"
compound=C1COCCSC2=C(SCCO1)SC(=C1SC3=C(SCCOCCOCCS3)S1)S2 target_of_assay="NCI-H460 lung" property_measured=TGI readout_value="> 100 µM"
compound=COc1cc(-c2nnc3n2NC=C(C(=O)O)S3)cc(OC)c1OC target_of_assay="NCI-H460 lung" property_measured=TGI readout_value="> 100 µM"
compound=CCOC(=O)c1sc2nc(SC)nc(Nc3ccc4c(c3)OCCO4)c2c1N target_of_assay="NCI-H460 lung" property_measured=TGI readout_value="> 100 µM"
compound=O=c1[nH]nc(Cc2ccc(Cl)cc2)n1/N=C/c1cccs1 target_of_assay="NCI-H460 lung" property_measured=TGI readout_value="> 100 µM"
compound="Cc1sc2c(c1C)C(c1ccc(Cl)cc1)=N[C@@H](CC(=O)Nc1ccc(OCCOCCOCCOCCNc3cccc4c3C(=O)N(C3CCC(=O)NC3=O)C4=O)cc1)c1nnc(C)n1-2 (stereo not given in full)" target_of_assay="NCI-H460 lung" property_measured=TGI readout_value="> 100 µM"
compound=COc1cc2c3c(n(CCCN(CCO)CCO)c(=O)c2cc1OC)-c1cc2c(cc1C3=O)OCO2 target_of_assay="NCI-H460 lung" property_measured=TGI readout_value="2.28 µM"
compound="COc1cc(/C=C2\\CCC/C(=C\\c3ccc(OCC4CO4)c(OC)c3)C2=O)ccc1OCC1CO1 (stereo not given)" target_of_assay="NCI-H460 lung" property_measured=TGI readout_value="5.59 µM"
compound="CCC[CH2][Sn]1([CH2]CCC)[O]CC(COc2c(Cl)cc(Cl)cc2Cl)[O]1 (stereo not given)" target_of_assay="NCI-H460 lung" property_measured=TGI readout_value="7.98 µM"
compound=C(=Nc1ccc2c(c1)Cc1ccccc1-2)c1ccccn1 target_of_assay="NCI-H460 lung" property_measured=TGI readout_value="> 100 µM"
compound=COc1ccc(-c2noc(N)c2-c2cc(OC)c3c(c2)OCO3)cc1 target_of_assay="NCI-H460 lung" property_measured=TGI readout_value="28 µM"
compound=O=C(Cn1c2ccc(Br)cc2c2nc3ccccc3nc21)NNC(=S)NC1CCCCC1 target_of_assay="NCI-H460 lung" property_measured=TGI readout_value="24.9 µM"
compound="COc1ccc(C2c3cc4c(cc3OC(N3CCOCC3)C2C)OCO4)cc1 (stereo not given)" target_of_assay="NCI-H460 lung" property_measured=TGI readout_value="> 100 µM"
compound=CC(=O)OCCOCNC(=S)N/N=C/c1ccc([N+](=O)[O-])s1 target_of_assay="NCI-H460 lung" property_measured=TGI readout_value="> 100 µM"
compound=c1ccc2c(c1)OCCOCCOc1ccccc1OCCO2 target_of_assay="NCI-H460 lung" property_measured=TGI readout_value="> 100 µM"
compound=Cc1c(Cl)cccc1NC(=O)c1cccc([N+](=O)[O-])c1O target_of_assay="NCI-H460 lung" property_measured=TGI readout_value="43.3 µM"
compound=CC(=O)[CH-]C(=O)c1ccccc1.CC(=O)[CH-]C(=O)c1ccccc1.O=S(=O)([O-])c1cc([O-])c2c([O-])cc(S(=O)(=O)[O-])cc2c1.[Na+].[Ti+4] target_of_assay="NCI-H460 lung" property_measured=TGI readout_value="> 100 µM"
compound=Cc1cc(NCCCCNc2ccnc3cc(Cl)ccc23)nc(Nc2ccc(C(=O)N3CCCCC3)cc2)n1 target_of_assay="NCI-H460 lung" property_measured=TGI readout_value="3.78 µM"
compound=O=C(NCCN1CCOCC1)c1ccc(I)cc1 target_of_assay="NCI-H460 lung" property_measured=TGI readout_value="> 100 µM"
compound=Nc1nc(SCc2ccccc2Cl)c2[nH]cnc2n1 target_of_assay="NCI-H460 lung" property_measured=TGI readout_value="> 100 µM"
compound=COC(=O)c1c[nH]cc1CCCCc1c[nH]cc1C(=O)OC target_of_assay="NCI-H460 lung" property_measured=TGI readout_value="> 100 µM"
compound=NCCCNCCCCN1CCOC1=O target_of_assay="NCI-H460 lung" property_measured=TGI readout_value="> 100 µM"
compound=Cc1c2c(C(N)=O)nccc2c(C)c2c1c1ccccc1n2Cc1ccccc1 target_of_assay="NCI-H460 lung" property_measured=TGI readout_value="28.8 µM"
compound=C=CCn1c(SCC(=O)Nc2ccc(C(=O)/C=C/c3cc(OC)c(OC)c(OC)c3)cc2)nnc1-c1ccc(OC)cc1 target_of_assay="NCI-H460 lung" property_measured=TGI readout_value="2.59 µM"
compound=O=C1C(Br)=CC2(C=C1Br)CCNC1=C2C(=O)c2ncccc2C1=O target_of_assay="NCI-H460 lung" property_measured=TGI readout_value="1.46 µM"

###

- Test system: SNB-75 CNS
- Assay details: NCI tumour cell line growth inhibition, 48 h
Property measured: log10 TGI (log10 of the value in µM)

compound=N/C(=N\S(=O)(=O)c1ccc(-c2ncccc2C(F)(F)F)s1)Nc1ccc(Cl)cc1 readout_value=1.60
compound=CN(C)CCNc1nc2ccccc2c2c(=O)c3cc(F)ccc3sc12 readout_value=0.45
compound="CC(=O)O[C@@]12CO[C@@H]1CC(O)[C@@]1(C)C(=O)[C@H](O)C3=C(C)C(O)C[C@@](O)(C(OC(=O)c4ccccc4)C12)C3(C)C (stereo not given in full)" readout_value=0.76
compound="COc1cc(/C=C/C(=O)C(C(=O)/C=C/c2ccc(OC(=O)CCNC34CC5CC(CC(C5)C3)C4)c(OC)c2)C(=O)CCNC23CC4CC(CC(C4)C2)C3)ccc1OC(=O)CCNC12CC3CC(CC(C3)C1)C2 (stereo not given)" readout_value=1.52
compound=CCCCCCCCCCCC(=O)OC[C@@H](C[As](=O)(O)O)OC(=O)CCCCCCCCCCC readout_value=1.22
compound=N#Cc1cc2c(cc1Cl)Sc1nnc(Nc3ccccc3)n1S2(=O)=O readout_value=1.03
compound=COc1ccc(-c2cc(Nc3ccnc(N4CCOCC4)n3)on2)cc1 readout_value=-0.24
compound=COc1ccc(-c2noc(N)c2-c2cc(OC)c3c(c2)OCO3)cc1 readout_value=0.85
compound=O=C1C=C(Nc2ccc(S(=O)(=O)Nc3nccs3)cc2)c2ccccc2C1=O readout_value=1.82

###

- Tested on: COLO 205 colon
- Assay details: NCI tumour cell line growth inhibition, 48 h
Property measured: TGI (µM)

compound=CC1(C)N=C(N)N=C(N)N1c1cccc(OCCOc2cccc([N+](=O)[O-])c2)c1 unit_label=µM sign=> readout_value=100
compound=CCCCCCCCCCCC(=O)OC[C@@H](C[As](=O)(O)O)OC(=O)CCCCCCCCCCC unit_label=µM sign== readout_value=36.6
compound=CC(C)(C)c1cc(C(=O)/C=C/c2ccc(C(=O)O)cc2)cc(C(C)(C)C)c1 unit_label=µM sign== readout_value=4.73
compound=COc1ccc2nc3cc(Cl)ccc3c(Sc3ccc(NC(C)=O)cc3)c2c1 unit_label=µM sign=> readout_value=34.2
compound="CCc1cccc(C)c1NC(=O)CC1C(=O)Nc2ccccc2S1=O (stereo not given)" unit_label=µM sign=> readout_value=100
compound="COc1cc(/C=C2\\CCC/C(=C\\c3ccc(OCC4CO4)c(OC)c3)C2=O)ccc1OCC1CO1 (stereo not given)" unit_label=µM sign== readout_value=3.54
compound=CN1CC=C(c2c(N)nc(N)[nH]c2=O)CC1 unit_label=µM sign=> readout_value=100
compound="Cc1ccc(C)c(N2C(=O)C(=O)C(c3nc4ccccc4o3)/C(=N/N)C2=O)c1 (stereo not given)" unit_label=µM sign=> readout_value=100
compound="CCOC(=O)C(NC(=O)c1ccccc1)(N1CCN(c2cc3c(cc2F)c(=O)c(C(=O)O)cn3C2CC2)CC1)C(F)(F)F (stereo not given)" unit_label=µM sign== readout_value=30.8
compound=CS(=O)(=O)CS(=O)(=O)OCCCl unit_label=µM sign== readout_value=831
